# testedOn: HOIP PUB domain (aa 1–184) Y82F (UniProt Q96EP0 1-184, Y82F)
# Sequence (Q96EP0 1-184 Y82F): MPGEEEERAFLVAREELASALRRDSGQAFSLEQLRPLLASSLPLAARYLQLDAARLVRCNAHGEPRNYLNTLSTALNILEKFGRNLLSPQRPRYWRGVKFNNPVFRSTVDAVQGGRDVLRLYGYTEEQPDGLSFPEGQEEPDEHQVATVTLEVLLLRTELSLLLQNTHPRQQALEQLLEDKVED
# assayName: FP
No end group written: not given here. *: point of attachment. FITC = O=C1OC2(c3ccc(O)cc3Oc3cc(O)ccc32)c2ccc(NC(=S)*)cc21; Ahx = NCCCCCC(=O)O
assayMetric: Kd
Please report the result as a number followed by the unit.

*Q* Identify the reported Kd for the following entry. {FITC-Ahx}-AEHEEDMYRAADEIEKEKE (peptide, UniProt Q96BN8 49-67, looked up, OTULIN, residues 49-67, holds the EEDMYR motif (residues 52-57); also called OTULIN peptide; wild-type OTULIN PIM peptide) [FITC-Ahx-labeled OTULIN PIM peptide (aa 49–67)]
*A* 9.38 µM

Reference for the values: paper PMC4017264
